# ASSAYED SYSTEM: recombinant human ACC2 (Homo sapiens (Human), UniProt O00763)
# Sequence (O00763 27-2458): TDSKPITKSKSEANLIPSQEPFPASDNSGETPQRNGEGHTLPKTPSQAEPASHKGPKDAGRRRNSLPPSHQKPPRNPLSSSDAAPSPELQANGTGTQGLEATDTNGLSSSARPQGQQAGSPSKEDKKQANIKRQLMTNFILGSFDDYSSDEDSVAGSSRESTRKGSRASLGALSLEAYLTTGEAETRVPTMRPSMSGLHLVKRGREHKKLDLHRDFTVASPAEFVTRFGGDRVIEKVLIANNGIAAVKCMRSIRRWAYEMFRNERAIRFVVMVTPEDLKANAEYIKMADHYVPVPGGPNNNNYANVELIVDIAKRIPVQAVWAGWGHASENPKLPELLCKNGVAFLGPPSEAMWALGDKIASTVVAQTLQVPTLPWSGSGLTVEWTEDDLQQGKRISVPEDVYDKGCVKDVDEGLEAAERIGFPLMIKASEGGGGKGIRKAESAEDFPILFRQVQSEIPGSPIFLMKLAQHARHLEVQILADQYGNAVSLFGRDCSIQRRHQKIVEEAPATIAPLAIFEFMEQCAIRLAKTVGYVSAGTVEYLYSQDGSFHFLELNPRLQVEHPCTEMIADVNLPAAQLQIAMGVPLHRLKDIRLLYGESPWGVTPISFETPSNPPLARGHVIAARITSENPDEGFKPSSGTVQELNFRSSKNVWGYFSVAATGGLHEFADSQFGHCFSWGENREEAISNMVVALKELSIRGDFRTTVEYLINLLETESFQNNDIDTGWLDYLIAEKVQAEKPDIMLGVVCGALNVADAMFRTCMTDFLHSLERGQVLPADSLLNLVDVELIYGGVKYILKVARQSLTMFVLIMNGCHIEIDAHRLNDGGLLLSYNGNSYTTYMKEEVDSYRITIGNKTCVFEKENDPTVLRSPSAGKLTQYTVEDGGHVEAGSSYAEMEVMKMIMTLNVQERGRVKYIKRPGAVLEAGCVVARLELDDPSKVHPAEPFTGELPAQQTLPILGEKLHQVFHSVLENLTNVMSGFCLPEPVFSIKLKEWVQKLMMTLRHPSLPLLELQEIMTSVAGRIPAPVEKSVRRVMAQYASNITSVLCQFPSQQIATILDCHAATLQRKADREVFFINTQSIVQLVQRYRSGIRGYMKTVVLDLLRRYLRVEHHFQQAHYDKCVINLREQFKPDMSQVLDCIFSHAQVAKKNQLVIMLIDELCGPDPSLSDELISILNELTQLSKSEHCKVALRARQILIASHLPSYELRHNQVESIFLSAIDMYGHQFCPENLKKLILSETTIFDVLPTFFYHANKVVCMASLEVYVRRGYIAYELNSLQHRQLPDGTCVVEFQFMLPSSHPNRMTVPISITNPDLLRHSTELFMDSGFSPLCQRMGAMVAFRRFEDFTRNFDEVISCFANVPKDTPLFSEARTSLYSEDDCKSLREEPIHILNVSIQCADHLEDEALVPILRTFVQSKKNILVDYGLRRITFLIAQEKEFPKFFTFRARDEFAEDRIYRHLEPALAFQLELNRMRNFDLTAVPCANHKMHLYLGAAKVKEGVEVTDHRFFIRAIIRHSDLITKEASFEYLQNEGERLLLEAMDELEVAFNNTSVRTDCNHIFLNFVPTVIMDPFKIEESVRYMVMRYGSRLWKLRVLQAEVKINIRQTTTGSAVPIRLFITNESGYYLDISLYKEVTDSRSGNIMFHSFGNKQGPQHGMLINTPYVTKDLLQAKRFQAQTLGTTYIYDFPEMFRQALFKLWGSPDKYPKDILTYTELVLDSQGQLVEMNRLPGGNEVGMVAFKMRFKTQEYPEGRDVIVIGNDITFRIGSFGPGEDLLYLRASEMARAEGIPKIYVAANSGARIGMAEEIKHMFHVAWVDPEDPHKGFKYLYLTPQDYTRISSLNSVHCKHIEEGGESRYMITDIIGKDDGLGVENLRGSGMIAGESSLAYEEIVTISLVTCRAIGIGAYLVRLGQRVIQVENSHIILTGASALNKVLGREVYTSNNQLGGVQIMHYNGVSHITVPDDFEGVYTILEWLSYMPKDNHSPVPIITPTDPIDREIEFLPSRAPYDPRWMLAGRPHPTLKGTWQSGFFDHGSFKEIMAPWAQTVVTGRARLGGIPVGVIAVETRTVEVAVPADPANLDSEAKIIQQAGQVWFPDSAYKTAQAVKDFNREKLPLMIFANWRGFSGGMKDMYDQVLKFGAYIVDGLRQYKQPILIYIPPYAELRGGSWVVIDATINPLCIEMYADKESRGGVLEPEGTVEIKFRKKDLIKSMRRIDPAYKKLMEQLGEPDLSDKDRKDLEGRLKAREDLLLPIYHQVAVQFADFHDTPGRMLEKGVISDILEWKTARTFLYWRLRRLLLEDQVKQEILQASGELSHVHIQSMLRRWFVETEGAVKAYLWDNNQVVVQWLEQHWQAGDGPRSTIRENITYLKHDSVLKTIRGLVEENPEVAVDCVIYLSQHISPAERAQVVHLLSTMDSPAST
# ASSAY SUMMARY: Measurement of inhibitory activity on human ACC2 (MALDI-TOF MS, conversion of acetyl CoA to malonyl CoA)
# Assay type: biochemical
# TEST CONDITIONS: recombinant human ACC2, room temperature, 1 to 3 hours
READOUT TYPE: IC50 (nM)

Below, 4 molecules whose answers are already recorded.
[
  {
    "SMILES TEXT": "CC(=O)N[C@@H](C)CO[C@H]1CC[C@H](Oc2nc3ccc(OC4CC4)nc3n2C)CC1",
    "READING": 13
  },
  {
    "SMILES TEXT": "C[C@@H](CO[C@H]1CC[C@H](Oc2nc3ccc(OC4CC4)nc3n2C)CC1)NC(N)=O",
    "READING": 44
  },
  {
    "SMILES TEXT": "C[C@@H](CO[C@H]1CC[C@H](Oc2nc3ccc(OC4CC4)c(F)c3n2C)CC1)NC(N)=O",
    "READING": 5.3
  },
  {
    "SMILES TEXT": "CC(=O)N[C@@H](C)CO[C@H]1CC[C@H](Oc2nc3c(F)c(F)c(OCC(F)F)c(F)c3n2C)CC1",
    "READING": 5.3
  }
]

a = C[C@@H](CO[C@H]1CC[C@H](Oc2nc3c(F)cc(OC4CC4)cc3n2C)CC1)NC(N)=O
b = C[C@@H](CO[C@H]1CC[C@H](Oc2nc3c(Cl)cc(OC4CC4)cc3n2C)CC1)NC(N)=O
c = CC(=O)N[C@@H](C)CO[C@H]1CC[C@H](Oc2nc3c(F)cc(OCC(F)F)c(F)c3n2C)CC1
d = CC(=O)N[C@@H](C)CO[C@H]1CC[C@H](Oc2nc3cc(F)c(OC4CC4)cc3n2C)CC1
Order the entries by their reported IC50, beginning at the minimum. List labels; respect the requested ordering. a, c, b, d
(a: 5.6 nM, c: 8.7 nM, b: 17 nM, d: 55 nM)

1 = C[C@@H](CO[C@H]1CC[C@H](Oc2nc3cc(F)c(OC4CC4)c(F)c3n2C)CC1)NC(N)=O
2 = CC(=O)N[C@@H](C)CO[C@H]1CC[C@H](Oc2nc3c(F)cc(O[C@H]4C[C@@H](O)C4)c(F)c3n2C)CC1
// pick larger IC50 from pair: 1 vs 2 Refer to your chosen item by its label in the answer. 2

P = CC(=O)N[C@@H](C)CO[C@H]1CC[C@H](Oc2nc3c(F)cc(OC4CC5(COC5)C4)c(F)c3n2C)CC1
Q = CC(=O)N[C@@H](C)CC(F)(F)[C@@H]1CC[C@@H](Oc2nc3c(F)cc(OCC(F)F)c(F)c3n2C)CO1
// pick larger IC50 from pair: P vs Q Refer to your chosen item by its label in the answer. Q

a = CC(=O)N[C@@H](C)CO[C@H]1CC[C@H](Oc2nc3c(F)cc(OC4(C)COC4)c(F)c3n2C)CC1
b = C[C@@H](CO[C@H]1CC[C@H](Oc2nc3cnc(OC4CC4)cc3n2C)CC1)NC(N)=O
Please indicate which item has the smaller measured IC50: a versus b Refer to your chosen item by its label in the answer. a
